# Lookup of reported absolute recovery keyed by entry
# experimentDescription: absolute recovery over mixed-bed multilayer solid-phase extraction; higher = better recovery
# settings: wastewater influent; enrichment method: SPE

| compound | readoutUnits | absolute recovery |
| --- | --- | --- |
| CC(Oc1ccc(Cl)cc1Cl)C(=O)[O-] (centres undefined) [Dichlorprop] | % | 87.9 |
| CCCCNC(=O)OCC#CI [IPBC (=Iodocarb)] | % | 74.3 |
| CC(C)[NH+](CCC(C(N)=O)(c1ccccc1)c1ccccn1)C(C)C (centres undefined) [Disopyramide] | % | 104 |
| CS(=O)(=O)c1ccc(C(=O)[C-]2C(=O)CCCC2=O)c(Cl)c1 [Sulcotrion] | % | 93.9 |
| CC(C)c1c(C(=O)Nc2ccccc2)c(-c2ccccc2)c(-c2ccc(F)cc2)n1CCC(O)CC(O)CC(=O)[O-] (centres undefined) [Atorvastatin] | % | 46.5 |
| CC[NH+](CC)CCNC(=O)c1cc(Cl)c(N)cc1OC [Metoclopramid] | % | 86.5 |
| C=CC1=C(C(=O)[O-])N2C(=O)C([NH3+])C2SC1 (centres undefined) [7-Amino-3-vinyl-3-cephem-4-carboxylic-acid] | % | 37.9 |
| C=CCOc1ccccc1OCC(O)C[NH2+]C(C)C (centres undefined) [Oxprenolol] | % | 87.2 |
| COc1cccc(C2(O)CCCCC2C[NH+](C)C)c1 (centres undefined) [Tramadol] | % | 91.6 |
| O=C1C(Cl)C(CCl)CN1c1cccc(C(F)(F)F)c1 (centres undefined) [Flurochloridon] | % | 98 |
| CC1(C)CC1C(=O)NC(=CCCCCSCC([NH3+])C(=O)[O-])C(=O)[O-] (centres undefined) [Cilastatin] | % | 37 |
| CCOC(=O)NCCOc1ccc(Oc2ccccc2)cc1 [Fenoxycarb] | % | 74.2 |
| C[NH2+]CCC(c1ccccc1)c1ccccn1 (centres undefined) [N-desmethylpheniramine] | % | 81.3 |
| COP(=O)(OC)SCn1c(=O)oc2cc(Cl)cnc21 [Azamethiphos] | % | 50.5 |
| COc1ccc2c(c1OC)C(=O)OC2C1c2c(cc3c(c2OC)OCO3)CC[NH+]1C (centres undefined) [Noscapin] | % | 103 |
| CCCC(NC(C)C(=O)N1C(C(=O)[O-])CC2CCCCC21)C(=O)OCC (centres undefined) [Perindopril] | % | 138 |
| NC(=O)N1c2ccccc2C(O)C(O)c2ccccc21 (centres undefined) [Carbamazepin-10-11-dihydro-10-11-dihydroxy] | % | 96 |
| Cc1nn(-c2cc(NS(C)(=O)=O)c(Cl)cc2Cl)c(=O)n1C(F)F [Sulfentrazon] | % | 88.9 |
| CC(C)CC(C)(O)C#CC(C)(O)CC(C)C (centres undefined) [Surfynol-104A] | % | 143 |

---

# experimentDescription: absolute recovery over mixed-bed multilayer solid-phase extraction; higher = better recovery
# settings: nanopure water; enrichment method: SPE
So basically: absolute recovery at 80% or higher? That is rule met. Lower than 80%? That is rule not met.

| compound | discreteLabel |
| --- | --- |
| NC(=O)N=C1SCCN1Cc1ccc(Cl)nc1 [Thiacloprid-amide] | rule met |
| Nc1ccc(C=Cc2ccc(N)cc2S(=O)(=O)[O-])c(S(=O)(=O)[O-])c1 [4-4-diamino-2,2-stilbenedisulfonic-acid] | rule not met |
| COc1ccc2c(c1)c(CC(=O)[O-])c(C)n2C(=O)c1ccc(Cl)cc1 [Indomethacin] | rule met |
| CCCOC(=O)NCCC[NH+](C)C [Propamocarb] | rule met |
| c1ccc(CN2CC[NH2+]CC2)cc1 [1-Benzylpiperazin] | rule not met |
| CC(C)(C)C(O)(CCc1ccc(Cl)cc1)Cn1cncn1 (centres undefined) [Tebuconazol] | rule met |
| COC(=O)C(Cc1ccccc1)NC(=O)C(CC(=O)[O-])[NH2+]CCC(C)(C)C (centres undefined) [Neotam] | rule met |
| Nc1ccc(S(=O)(=O)[O-])cc1 [Sulfanilic-acid] | rule not met |
| CC1COC(Cn2cncn2)(c2ccc(Oc3ccc(Cl)cc3)cc2Cl)O1 (centres undefined) [Difenoconazol] | rule met |
| O=C(NCCc1ncc(C(F)(F)F)cc1Cl)c1ccccc1C(F)(F)F [Fluopyram] | rule met |
| COCCCOc1cc(CC(CC([NH3+])C(O)CC(C(=O)NCC(C)(C)C(N)=O)C(C)C)C(C)C)ccc1OC (centres undefined) [Aliskiren] | rule not met |
| O=C([O-])Cc1ccccc1Nc1c(Cl)cccc1Cl [Diclofenac] | rule met |
| C[NH2+]C(C)C(O)c1ccccc1 (centres undefined) [Ephedrin] | rule met |
| COC(=O)c1ccccc1S(=O)(=O)[N-]C(=O)Nc1nc(C)nc(OC)n1 [Metsulfuron-methyl] | rule met |
| NC1=[NH+]CCN1Cc1ccc(Cl)nc1 [Imidacloprid-desnitro] | rule met |
| CC(C)Cc1ccc(C(C)C(=O)[O-])cc1 (centres undefined) [Ibuprofen] | rule met |
| CC(C)N(C(=O)C(=O)[O-])c1ccccc1 [Propachlor-OXA] | rule met |
| CC(=O)Nc1ccc(O)cc1 [Paracetamol (=3-Acetamidophenol)] | rule not met |
| NC(=O)Cc1ccc(OCC(O)C[NH3+])cc1 (centres undefined) [Atenolol-desisopropyl] | rule not met |
